Target: Cholinesterase (Homo sapiens, UniProt P06276)
Sequence (P06276 whole entry): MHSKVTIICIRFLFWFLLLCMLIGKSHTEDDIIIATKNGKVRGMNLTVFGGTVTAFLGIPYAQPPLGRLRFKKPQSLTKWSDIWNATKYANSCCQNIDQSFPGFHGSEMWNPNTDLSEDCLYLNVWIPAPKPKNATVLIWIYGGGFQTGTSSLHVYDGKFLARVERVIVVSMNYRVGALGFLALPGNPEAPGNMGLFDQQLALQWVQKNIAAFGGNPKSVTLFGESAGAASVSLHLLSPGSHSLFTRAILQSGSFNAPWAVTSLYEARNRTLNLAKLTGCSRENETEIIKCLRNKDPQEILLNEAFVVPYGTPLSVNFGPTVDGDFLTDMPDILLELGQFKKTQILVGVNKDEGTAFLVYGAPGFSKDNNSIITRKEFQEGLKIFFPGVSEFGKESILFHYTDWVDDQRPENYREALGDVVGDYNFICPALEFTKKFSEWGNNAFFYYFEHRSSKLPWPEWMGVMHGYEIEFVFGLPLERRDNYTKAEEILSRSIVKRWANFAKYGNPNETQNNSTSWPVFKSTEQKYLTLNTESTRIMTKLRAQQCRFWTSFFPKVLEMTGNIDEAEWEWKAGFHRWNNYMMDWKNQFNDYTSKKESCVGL
Test: Inhibition of human BuChE using butyrylthiocholine iodide as substrate preincubated for 30 mins followed by substrate addition and measured after 15 mins by Ellman's method
measure: pIC50
A value of pIC50 is the negative decimal logarithm of a concentration given in moles per litre.

Which pIC50 is reported for this compound? C#CCOc1ccc(-c2cc(-c3ccc(OCCN4CCOCC4)cc3)nc(N)n2)cc1
6.18

----------
Target: Amine oxidase [flavin-containing] B (Homo sapiens, UniProt P27338)
Sequence (P27338 whole entry): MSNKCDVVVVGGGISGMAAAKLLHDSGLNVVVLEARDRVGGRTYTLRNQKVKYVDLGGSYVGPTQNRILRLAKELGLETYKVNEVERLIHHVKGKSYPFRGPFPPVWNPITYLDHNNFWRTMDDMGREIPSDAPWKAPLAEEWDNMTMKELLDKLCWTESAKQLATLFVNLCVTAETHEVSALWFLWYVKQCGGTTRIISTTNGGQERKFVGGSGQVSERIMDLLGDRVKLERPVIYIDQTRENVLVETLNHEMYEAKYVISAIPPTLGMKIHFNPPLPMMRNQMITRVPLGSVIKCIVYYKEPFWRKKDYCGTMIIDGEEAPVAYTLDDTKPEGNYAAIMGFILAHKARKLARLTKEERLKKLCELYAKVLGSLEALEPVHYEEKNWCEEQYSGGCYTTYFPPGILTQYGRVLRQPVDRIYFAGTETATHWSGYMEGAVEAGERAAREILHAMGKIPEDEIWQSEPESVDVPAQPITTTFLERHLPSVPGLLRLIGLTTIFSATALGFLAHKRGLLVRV
Experiment: Inhibition of human MAO-B using benzylamine as substrate preincubated for 15 mins followed by substrate addition and measured after 15 mins by fluorescence assay
measure: IC50 (nM)
Use nM as the unit, but write only the number.

What value of IC50 on Amine oxidase [flavin-containing] B (Homo sapiens, UniProt P27338) does C#CCNCc1ccc2c(c1)ncn2-c1cc(NC(=S)NCC)ncn1 have?
2120
